Please provide measured B2M purified rhAmpSeq indel for the entries that follow.
- System: B2M
- Procedure summary: Targeted PCR and NGS (amplicon sequencing) of on-target and off-target sites in genome-edited LSCs
- Format: cell-based, human
- Settings: purified (B2M negative) LSC populations
Numbers only, in %.

Reference set (4 entries):
9-HEYJA000005: gRNA targeting human B2M; targeting domain SEQ ID NO: 116; sgRNA SEQ ID NO: 167 (nucleic acid, listed as RNA, chemistry not given here) guide: UCACGUCAUCCAGCAGAGAAGUUUUAGAGCUAGAAAUAGCAAGUUAAAAUAAGGCUAGUCCGUUAUCAACUUGAAAAAGUGGCACCGAGUCGGUGCUUUU ... 99.80
4-CR004366: gRNA targeting human B2M; targeting domain SEQ ID NO: 111; sgRNA SEQ ID NO: 162; from Dharmacon (nucleic acid, listed as RNA, chemistry not given here, gRNA targeting human B2M; from Dharmacon) guide: CAGUAAGUCAACUUCAAUGUGUUUUAGAGCUAGAAAUAGCAAGUUAAAAUAAGGCUAGUCCGUUAUCAACUUGAAAAAGUGGCACCGAGUCGGUGCUUUU ... 99.85
CR000455: gRNA targeting human B2M; targeting domain SEQ ID NO: 138; sgRNA SEQ ID NO: 175 (nucleic acid, listed as RNA, chemistry not given here) guide: UUACCCCACUUAACUAUCUUGUUUUAGAGCUAGAAAUAGCAAGUUAAAAUAAGGCUAGUCCGUUAUCAACUUGAAAAAGUGGCACCGAGUCGGUGCUUUU ... 99.33
1-CR004366: gRNA targeting human B2M; targeting domain SEQ ID NO: 108; sgRNA SEQ ID NO: 120; from Dharmacon (nucleic acid, listed as RNA, chemistry not given here, gRNA targeting human B2M; from Dharmacon) guide: GAGUAGCGCGAGCACAGCUAGUUUUAGAGCUAGAAAUAGCAAGUUAAAAUAAGGCUAGUCCGUUAUCAACUUGAAAAAGUGGCACCGAGUCGGUGCUUUU ... 99.60

State the recorded B2M purified rhAmpSeq indel for this entry: 8-HEYJA000004: gRNA targeting human B2M; targeting domain SEQ ID NO: 115; sgRNA SEQ ID NO: 166 (nucleic acid, listed as RNA, chemistry not given here) guide: ACUCACGCUGGAUAGCCUCCGUUUUAGAGCUAGAAAUAGCAAGUUAAAAUAAGGCUAGUCCGUUAUCAACUUGAAAAAGUGGCACCGAGUCGGUGCUUUU
99.95
